# Test system: Mycobacterium tuberculosis
# Test details: Antimycobacterial activity against Mycobacterium tuberculosis
# Assay type: functional
# Assay setup: Mycobacterium tuberculosis
Class key for MIC values: bottom bin (below 1 µM), middle bin (1 µM to below 3 µM), top bin (3 µM or more)

CC(C)CN1CCN(c2ccc3c(=O)c(C(=O)O)cn(-c4c(F)cccc4F)c3c2)CC1 ... top bin
CNCC1CCN(c2ccc3c(=O)c(C(=O)O)cn(C4CCC4)c3c2)C1 (stereo unspecified) ... top bin
CCCn1cc(C(=O)O)c(=O)c2ccc(N3CCNCC3)cc21 ... top bin
CC1(CN)CCN(c2ccc3c(=O)c(C(=O)O)cn(C4CC4)c3c2)C1 (stereo unspecified) ... bottom bin
CNCC1CCN(c2ccc3c(=O)c(C(=O)O)cn(C4CC4)c3c2)C1 (stereo unspecified) ... middle bin

Turning now to a further record.
Class (by measured MIC) for CCN1CCN(c2ccc3c(=O)c(C(=O)O)cn(C4CCC4)c3c2)CC1 top bin

====

# Tested on: Mycobacterium tuberculosis
# Test details: Antimycobacterial activity against Mycobacterium tuberculosis
# Format: functional
# Assay setup: Mycobacterium tuberculosis
Parameter measured: MIC (µM)
One number for each entry, in µM.

Recorded MIC, per entry:
CNCC1CCN(c2ccc3c(=O)c(C(=O)O)cn(C(C)(C)C)c3c2)C1 (stereo not given) ... 0.666
CC(C)NCC1CCN(c2ccc3c(=O)c(C(=O)O)cn(C4CC4)c3c2)C1 (stereo not given) ... 1.29
O=C(O)c1cn(C2CCC2)c2cc(N3CCNCC3)ccc2c1=O ... 5.79
CC1CN(c2ccc3c(=O)c(C(=O)O)cn(C4CCC4)c3c2)CCN1 (stereo not given) ... 2.78
CCNCC1CCN(c2ccc3c(=O)c(C(=O)O)cn(C4CC4)c3c2)C1 (stereo not given) ... 1.34

Give one value of MIC per listed molecule.
1. CC1CN(c2ccc3c(=O)c(C(=O)O)cn(C(C)C)c3c2)CCN1 (stereo not given)
2. CN1CCN(c2ccc3c(=O)c(C(=O)O)cn(-c4c(F)cccc4F)c3c2)CC1
3. O=C(O)c1cn(C2CC2)c2cc(N3CCNCC3)ccc2c1=O
4. CN(C)CC1CCN(c2ccc3c(=O)c(C(=O)O)cn(C4CC4)c3c2)C1 (stereo not given)
5. CC1CN(c2ccc3c(=O)c(C(=O)O)cn(-c4c(F)cccc4F)c3c2)CCN1 (stereo not given)
6. O=C(O)c1cn(-c2c(F)cccc2F)c2cc(N3CCNCC3)ccc2c1=O

5.76
1.2
0.754
1.34
1.2
1.24

====

Exercise: state measured MIC for each of the compounds provided.
# Tested on: Mycobacterium tuberculosis
# Test details: Antimycobacterial activity against Mycobacterium tuberculosis
# Assay type: functional
# Assay setup: Mycobacterium tuberculosis
One number for each entry, in µM.

Recorded MIC, per entry:
CC1CN(c2ccc3c(=O)c(C(=O)O)cn(C4CC4)c3c2)CC(C)N1 (centres undefined) ... 0.362
CC1CN(c2ccc3c(=O)c(C(=O)O)cn(C(C)(C)C)c3c2)CCN1 (centres undefined) ... 0.166
CC1CN(c2ccc3c(=O)c(C(=O)O)cn(-c4c(F)cccc4F)c3c2)CC(C)N1 (centres undefined) ... 1.16

Now turn to the next compound.
The reported value for CC(C)(C)n1cc(C(=O)O)c(=O)c2ccc(N3CCC(N)C3)cc21 (centres undefined) in terms of MIC is 0.374
